# subject.of.test: UniProtKB O43353
# Sequence (O43353 whole entry): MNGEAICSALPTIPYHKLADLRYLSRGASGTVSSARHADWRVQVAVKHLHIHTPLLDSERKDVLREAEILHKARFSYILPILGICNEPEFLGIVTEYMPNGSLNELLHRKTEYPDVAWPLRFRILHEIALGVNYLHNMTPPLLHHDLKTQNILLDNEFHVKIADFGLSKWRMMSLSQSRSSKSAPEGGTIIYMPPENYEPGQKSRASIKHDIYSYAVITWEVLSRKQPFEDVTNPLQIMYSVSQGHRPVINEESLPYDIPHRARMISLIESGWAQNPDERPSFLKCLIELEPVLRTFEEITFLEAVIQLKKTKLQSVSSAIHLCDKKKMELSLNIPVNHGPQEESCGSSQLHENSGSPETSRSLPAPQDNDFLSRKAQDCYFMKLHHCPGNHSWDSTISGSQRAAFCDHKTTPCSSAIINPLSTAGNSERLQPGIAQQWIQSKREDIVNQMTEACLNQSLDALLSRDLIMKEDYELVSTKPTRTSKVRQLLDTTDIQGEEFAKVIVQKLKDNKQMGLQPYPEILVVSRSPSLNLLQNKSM
# procedure.details: in vitro kinase assay, RICK
# condition.label: 50 μM ATP (FIG. 8)
measure: IC50 (nM)
# number only, unit nM dropped from output

Entry Cn1c(=O)c(-c2c(Cl)cccc2Cl)cc2cnc(Nc3ccc(OCCN)cc3)nc21 [compound B] — recorded IC50 = 0.16

###

# subject.of.test: GAK (Homo sapiens)
# Sequence (O14976 26-392): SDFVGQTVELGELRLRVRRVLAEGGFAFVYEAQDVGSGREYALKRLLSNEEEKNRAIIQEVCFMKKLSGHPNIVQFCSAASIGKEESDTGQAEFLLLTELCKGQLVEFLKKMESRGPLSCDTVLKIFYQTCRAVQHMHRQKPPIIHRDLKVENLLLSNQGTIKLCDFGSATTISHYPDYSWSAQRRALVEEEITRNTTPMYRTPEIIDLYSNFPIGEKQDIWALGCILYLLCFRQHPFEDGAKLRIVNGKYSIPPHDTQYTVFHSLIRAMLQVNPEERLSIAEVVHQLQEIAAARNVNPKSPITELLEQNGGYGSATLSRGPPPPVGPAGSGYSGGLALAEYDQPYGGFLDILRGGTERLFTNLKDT
measure: pIC50
Entry type: numeric. Quantity: pIC50, the -log10 of concentration in molar units.

// Cn1c(=O)c(-c2c(Cl)cccc2Cl)cc2cnc(Nc3ccc(OCCN)cc3)nc21 : pIC50 value = 8.57

###

# subject.of.test: Ste20-like kinase (SLK) (Homo sapiens)
# Sequence (Q9H2G2 whole entry): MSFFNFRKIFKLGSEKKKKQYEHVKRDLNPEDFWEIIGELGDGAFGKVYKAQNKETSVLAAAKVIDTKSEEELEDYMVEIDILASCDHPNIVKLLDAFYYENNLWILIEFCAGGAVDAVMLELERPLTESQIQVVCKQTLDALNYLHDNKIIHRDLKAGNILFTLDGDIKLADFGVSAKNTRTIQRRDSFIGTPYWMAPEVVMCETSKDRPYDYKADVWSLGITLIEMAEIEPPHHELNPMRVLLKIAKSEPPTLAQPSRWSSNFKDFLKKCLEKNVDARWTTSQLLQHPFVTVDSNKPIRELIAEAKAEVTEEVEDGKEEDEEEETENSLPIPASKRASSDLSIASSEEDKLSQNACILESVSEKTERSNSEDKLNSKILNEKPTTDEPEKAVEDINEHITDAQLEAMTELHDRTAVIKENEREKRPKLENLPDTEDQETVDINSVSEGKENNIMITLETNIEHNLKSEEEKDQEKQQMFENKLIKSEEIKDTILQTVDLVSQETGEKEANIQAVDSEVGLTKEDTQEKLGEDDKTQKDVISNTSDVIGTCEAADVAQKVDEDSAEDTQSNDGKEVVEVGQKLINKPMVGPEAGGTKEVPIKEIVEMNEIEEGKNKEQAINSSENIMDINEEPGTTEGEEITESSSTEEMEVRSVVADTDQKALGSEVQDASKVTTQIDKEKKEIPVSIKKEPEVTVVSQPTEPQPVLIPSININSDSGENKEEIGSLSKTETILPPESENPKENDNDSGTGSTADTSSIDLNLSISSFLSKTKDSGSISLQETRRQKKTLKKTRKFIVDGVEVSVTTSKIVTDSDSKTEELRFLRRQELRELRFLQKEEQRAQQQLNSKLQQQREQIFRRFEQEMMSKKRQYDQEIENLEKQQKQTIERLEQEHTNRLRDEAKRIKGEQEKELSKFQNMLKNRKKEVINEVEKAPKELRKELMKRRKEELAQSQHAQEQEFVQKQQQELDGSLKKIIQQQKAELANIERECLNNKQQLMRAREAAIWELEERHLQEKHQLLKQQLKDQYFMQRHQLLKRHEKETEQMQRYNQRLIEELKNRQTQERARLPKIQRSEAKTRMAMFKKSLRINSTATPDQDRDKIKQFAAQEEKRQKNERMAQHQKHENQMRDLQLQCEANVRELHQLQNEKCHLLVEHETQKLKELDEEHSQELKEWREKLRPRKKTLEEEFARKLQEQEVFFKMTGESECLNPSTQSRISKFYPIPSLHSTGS
pIC50: −log10 of the molar value.
measure: pIC50

Readout pIC50 for NCCCn1cc(C2=C(c3c[nH]c4ccccc34)C(=O)NC2=O)c2ccccc21 , test system Ste20-like kinase (SLK) (Homo sapiens), was ~6.82
